# System: Streptococcus pyogenes
# METHOD: Antimicrobial activity against Streptococcus pyogenes ATCC 19615 incubated for 18 hrs by agar dilution method
# Format: functional
# CONDITIONS USED: ATCC 19615, 18 h
Simple rule here: MIC less than 500 µM is True, otherwise False.

Please review the entries below; each comes with its answer.
CCn1cc(C(=O)O)c(=O)c2ccc(C)nc21
False
CCn1cc(C(=O)O)c(=O)c2cc(F)c(N3CCN(C(=O)CCCNC(=O)c4cn(CC)c5nc(C)ccc5c4=O)CC3)cc21
False
CCn1cc(C(=O)NCCC(=O)N2CCN(c3cc4c(cc3F)c(=O)c(C(=O)O)cn4C3CC3)CC2)c(=O)c2ccc(C)nc21
True
CCn1cc(C(=O)O)c(=O)c2cc(F)c(N3CCN(C(=O)CCNC(=O)c4cn(CC)c5cc6c(cc5c4=O)OCO6)CC3)cc21
True
CCn1cc(C(=O)N[C@@H](Cc2c[nH]c3ccccc23)C(=O)N2CCN(c3cc4c(cc3F)c(=O)c(C(=O)O)cn4C3CC3)CC2)c(=O)c2cc3c(cc21)OCO3
True

Strictly below 500 µM: is that where MIC of CCn1cc(C(=O)NCCC(=O)N2CCN(c3cc4c(cc3F)c(=O)c(C(=O)O)cn4C3CC3)CC2)c(=O)c2cc3c(cc21)OCO3 sits? False

Field: below-cutoff. Rule: recorded MIC strictly less than 500 µM. Subject: CCn1cc(C(=O)N[C@@H](Cc2c[nH]c3ccccc23)C(=O)N2CCN(c3cc4c(cc3F)c(=O)c(C(=O)O)cn4C3CC3)CC2)c(=O)c2ccc(C)nc21 False

Hi there! Is MIC for CCn1cc(C(=O)O)c(=O)c2cc(F)c(N3CCN(C(=O)[C@H](Cc4ccccc4)NC(=O)c4cn(CC)c5nc(C)ccc5c4=O)CC3)cc21 below 500 µM, do you know? True

Please indicate whether the reported MIC of CCn1cc(C(=O)O)c(=O)c2cc(F)c(N3CCN(C(=O)[C@H](Cc4ccccc4)NC(=O)c4cn(CC)c5cc6c(cc5c4=O)OCO6)CC3)cc21 is strictly below 500 µM. False

Below 500 µM on MIC? Entry CCn1cc(C(=O)O)c(=O)c2cc(F)c(N3CCN(C(=O)[C@H](Cc4c[nH]c5ccccc45)NC(=O)c4cn(CC)c5nc(C)ccc5c4=O)CC3)cc21 False

Please indicate whether the reported MIC of CCn1cc(C(=O)O)c(=O)c2cc3c(cc21)OCO3 is strictly below 500 µM. False

Report whether reported MIC is lower than 500 µM (strictly) for CCn1cc(C(=O)N[C@@H](Cc2ccccc2)C(=O)N2CCN(c3cc4c(cc3F)c(=O)c(C(=O)O)cn4C3CC3)CC2)c(=O)c2cc3c(cc21)OCO3 False

---

# System: Pseudomonas aeruginosa
# METHOD: Antimicrobial activity against Pseudomonas aeruginosa ATCC 27853 incubated for 18 hrs by agar dilution method
# Format: functional
# CONDITIONS USED: ATCC 27853, 18 h
For each entry below, report its MIC value.
Answers are plain numbers, in µM.

Look over these answered cases.
CC[C@H](C)[C@H](NC(=O)c1cn(CC)c2cc3c(cc2c1=O)OCO3)C(=O)N1CCN(c2cc3c(cc2F)c(=O)c(C(=O)O)cn3C2CC2)CC1
1820
CCn1cc(C(=O)O)c(=O)c2cc(F)c(N3CCN(C(=O)[C@H](Cc4ccccc4)NC(=O)c4cn(CC)c5cc6c(cc5c4=O)OCO6)CC3)cc21
1760
CCn1cc(C(=O)O)c(=O)c2cc(F)c(N3CCN(C(=O)[C@H](Cc4ccccc4)NC(=O)c4cn(CC)c5nc(C)ccc5c4=O)CC3)cc21
918

For every item below, please supply its MIC.
1. CC[C@H](C)[C@H](NC(=O)c1cn(CC)c2nc(C)ccc2c1=O)C(=O)N1CCN(c2cc3c(cc2F)c(=O)c(C(=O)O)cn3C2CC2)CC1
2. O=C(O)c1cn(C2CC2)c2cc(N3CCNCC3)c(F)cc2c1=O [CIPROFLOXACIN]
3. CCn1cc(C(=O)O)c(=O)c2cc3c(cc21)OCO3 [OXOLINIC ACID]

1: 1900; 2: 74.6; 3: 15

Using the record for CCn1cc(C(=O)O)c(=O)c2cc(F)c(N3CCN(C(=O)CCNC(=O)c4cn(CC)c5cc6c(cc5c4=O)OCO6)CC3)cc21 , report its MIC. 493
